Molecular target: human CD40 on cells (HEK293 stable transfectants, HEK-Blue CD40 cells, human B cells, monocytic cells, … (human, UniProt P25942 21-277))
Sequence (P25942 21-277 limits assumed): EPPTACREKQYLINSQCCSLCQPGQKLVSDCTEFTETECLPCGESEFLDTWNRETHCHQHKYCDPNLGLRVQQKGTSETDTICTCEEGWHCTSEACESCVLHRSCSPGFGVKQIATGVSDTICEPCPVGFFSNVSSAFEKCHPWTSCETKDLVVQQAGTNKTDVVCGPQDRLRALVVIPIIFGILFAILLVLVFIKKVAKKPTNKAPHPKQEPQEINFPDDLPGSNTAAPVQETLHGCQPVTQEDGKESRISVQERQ
Experiment: cell-based or functional assay
measurement_type: NF-κB activation EC50, HEK293 CD40 NFκB reporter cells (µg/mL)
Form entry: value (µg/mL) — number only.

Q: # lookup: NF-κB activation EC50, HEK293 CD40 NFκB reporter cells of huAb8-1 (antibody, human IgG1, V domains shown, human IgG1, kappa) VH: EVQLVQSGAEVKKPGSSVKVSCKASGYTFTDYYINWVRQAPGQGLEWIGWIFPGSGSVYCNEQFKGRATLTVDRSTSTAYMELSSLRSEDTAVYFCASSLGKFAYWGQGTLVTVSS VL: DIQMTQSPSSLSASVGDRVTITCKASQSVVTAVAWYQQKPGKSPKLLIYSASNRYTGVPSRFSGSGSGTDFTLTISSLQPEDFATYFCQQYSSYPYTFGGGTKVEIK
Ans: 0.14
